Consider the following variants; for each one, report its protein stability index.
B1: TRAF3IP2 (parent)
chain: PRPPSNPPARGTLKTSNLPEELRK

variants of: B1; test: protein stability index of a GFP-peptide fusion (GPS, HEK-293T) (PSI 1-6); higher = more stable; settings: c terminus: a fixed tail appended;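 also: lentivirally expressed fusions sorted by FACS into six bins by GFP to DsRed ratio, PSI derived from sequencing read proportions per bin multiplied by bin number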
Numbers only.

Residue change: P4E
Reading: 4.52

Give protein stability index for each listed item.
1. K14V
2. S5I

5.17
4.75

This collection of values is drawn from the supplement of paper PMC10567573.
